FYI, the data here is from patent US20230372526A1.

Assay: Hydrolysis of Pertuzumab conjugated samples obtained using different small molecule compounds, hydrolysis percentage by Native MS
Format: physicochemical
Details: hydrolysis system A: 50 mM sodium dihydrogen phosphate-disodium hydrogen phosphate buffer, pH 7.8; 1 h
For each record, write down the corresponding 1 h hydrolysis percentage.
Please state the figure in %; there is no need to write the unit.

Prompt line: Any idea what 1 h hydrolysis percentage was measured for CCC(C)[C@@H]([C@@H](CC(=O)N1CCC[C@H]1[C@H](OC)[C@@H](C)C(=O)N[C@H](C)[C@@H](O)c1ccccc1)OC)N(C)C(=O)[C@@H](NC(=O)[C@H](C(C)C)N(C)C(=O)OCc1ccc(NC(=O)[C@H](CCCNC(N)=O)NC(=O)[C@@H](NC(=O)COCCOCCOCCOc2c(F)cc(N3C(=O)C(Sc4ccccc4)=C(Sc4ccccc4)C3=O)cc2F)C(C)C)cc1)C(C)C (stereo partly shown) ?
Response line: 89.31

Prompt line: Any idea what 1 h hydrolysis percentage was measured for CCC(C)[C@@H]([C@@H](CC(=O)N1CCC[C@H]1[C@H](OC)[C@@H](C)C(=O)N[C@H](C)[C@@H](O)c1ccccc1)OC)N(C)C(=O)[C@@H](NC(=O)[C@H](C(C)C)N(C)C(=O)OCc1ccc(NC(=O)[C@H](CCCNC(N)=O)NC(=O)[C@@H](NC(=O)COCCOCCOCCOc2ccc(N3C(=O)C(Sc4ccc(C(=O)N5CCOCC5)cc4)=C(Sc4ccc(C(=O)N5CCOCC5)cc4)C3=O)cc2)C(C)C)cc1)C(C)C (stereo partly shown) ?
Response line: 85.31

Prompt line: Any idea what 1 h hydrolysis percentage was measured for CCC(C)[C@@H]([C@@H](CC(=O)N1CCC[C@H]1[C@H](OC)[C@@H](C)C(=O)N[C@H](C)[C@@H](O)c1ccccc1)OC)N(C)C(=O)[C@@H](NC(=O)[C@H](C(C)C)N(C)C(=O)OCc1ccc(NC(=O)[C@H](CCCNC(N)=O)NC(=O)[C@@H](NC(=O)COCCOCCOCCOc2ccc(N3C(=O)C(Sc4ccccc4)=C(Sc4ccccc4)C3=O)c(C(F)(F)F)c2)C(C)C)cc1)C(C)C (stereo partly shown) ?
Response line: 15.65

Prompt line: Any idea what 1 h hydrolysis percentage was measured for CCC(C)[C@@H]([C@@H](CC(=O)N1CCC[C@H]1[C@H](OC)[C@@H](C)C(=O)N[C@H](C)[C@@H](O)c1ccccc1)OC)N(C)C(=O)[C@@H](NC(=O)[C@H](C(C)C)N(C)C(=O)OCc1ccc(NC(=O)[C@H](CCCNC(N)=O)NC(=O)[C@@H](NC(=O)COCCOCCOCCOc2ccc(N3C(=O)C(Sc4ccc(C(=O)NC)cc4)=C(Sc4ccc(C(=O)NC)cc4)C3=O)cc2OC)C(C)C)cc1)C(C)C (stereo partly shown) ?
Response line: 15.83
